Assay: NCI Yeast Anticancer Drug Screen. Data for the wt1 strain (AID 149);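 note: 0% = growth of vehicle-treated wt1 cultures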
Details: S. cerevisiae wt1 strain (SPY 50644) growth inhibition; at 1.2 µM; active compounds read high
Compounds without any hit were thinned out: in the full panel of roughly 79,000, 15% have a hit.

[
  {
    "Structure smiles string": "CCc1[nH]nc(C(N)=O)c1N=NN(C)C",
    "growth inhibition (%)": -6
  },
  {
    "Structure smiles string": "CN(C)c1ccc(N=Nc2ccccn2)cc1",
    "growth inhibition (%)": -21
  },
  {
    "Structure smiles string": "O=c1[nH]cc(/C=N\\Nc2ccccc2)c(=O)[nH]1",
    "growth inhibition (%)": 3
  },
  {
    "Structure smiles string": "CN(C)c1ccc(/C=C/c2ccnc3ccccc23)cc1N",
    "growth inhibition (%)": -2
  },
  {
    "Structure smiles string": "CC(C)(C)c1ccc(O)c(C(c2ccc([N+](=O)[O-])cc2)c2cc(C(C)(C)C)ccc2O)c1",
    "growth inhibition (%)": -2
  },
  {
    "Structure smiles string": "Cc1cc(O)c2c(c1)C(=O)C=C(Br)C2=O",
    "growth inhibition (%)": -1
  }
]

###

Test: NCI Yeast Anticancer Drug Screen. Data for the sgs1 strain (AID 173);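 note: 0% = growth of vehicle-only control cultures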
Details: S. cerevisiae sgs1 mutant, at 33.0 µM, active compounds read high
This is part of a sample that, as a whole, favours compounds with a hit. Of some 79,000 tested, about 15% had one in any assay.
Parameter class (string): assigned from measured growth inhibition. Ranges: zone 1 (below 20%), zone 2 (20% to below 60%), zone 3 (60% or more)

[
  {
    "Compound": "CN(C)CCN1C(=O)c2cccc3cc([N+](=O)[O-])cc(c23)C1=O",
    "Classification": "zone 1"
  },
  {
    "Compound": "O=[N+]([O-])c1cc(S(=O)(=O)Nc2ccccc2)ccc1Cl",
    "Classification": "zone 3"
  },
  {
    "Compound": "Cc1ccc(CNc2ccc(Br)cc2)cc1",
    "Classification": "zone 2"
  },
  {
    "Compound": "CCC(NC(C)c1ccccc1)C(=O)c1ccc(OCc2ccccc2)c(OCc2ccccc2)c1 (stereo unspecified)",
    "Classification": "zone 2"
  },
  {
    "Compound": "COc1ccc(/C=C2\\SC(=S)N(C=C3C(=O)NC(=S)NC3=O)C2=O)cc1OC",
    "Classification": "zone 3"
  },
  {
    "Compound": "O=C(O)c1cccc2cccc(-c3c4ccc(=O)cc-4oc4cc(O)ccc34)c12",
    "Classification": "zone 3"
  },
  {
    "Compound": "CCCCCCCCN1C(=O)c2ccccc2C1=O",
    "Classification": "zone 1"
  },
  {
    "Compound": "O/N=C/C1c2ccccc2-c2ccccc21",
    "Classification": "zone 2"
  },
  {
    "Compound": "O=C(/C=C/c1cccc2ccccc12)c1ccc(Cl)cc1",
    "Classification": "zone 1"
  },
  {
    "Compound": "O=C1C=CC(=O)N1c1ccc(I)cc1",
    "Classification": "zone 3"
  },
  {
    "Compound": "Cc1onc(-c2ccccc2Cl)c1C1=N/C(=C/c2cc(Cl)cc(Cl)c2O)C(=O)O1",
    "Classification": "zone 1"
  },
  {
    "Compound": "COc1cc([C@@H]2c3cc4c(cc3[C@@H](OC3OC5COC(C)OC5C(O)C3O)[C@H]3COC(=O)[C@H]23)OCO4)cc(OC)c1O (stereo partly specified)",
    "Classification": "zone 1"
  },
  {
    "Compound": "NCc1c(O)ccc2ccccc12",
    "Classification": "zone 3"
  },
  {
    "Compound": "Cc1cc(Cl)nc2nc(Cl)c(N)cc12",
    "Classification": "zone 1"
  },
  {
    "Compound": "Cc1cc(Cl)ccc1NC(=O)/C(Cl)=C1/Sc2ccccc2NC1=O",
    "Classification": "zone 1"
  },
  {
    "Compound": "Clc1c(Cl)c(Cl)c2n[nH]nc2c1Cl",
    "Classification": "zone 2"
  },
  {
    "Compound": "Cn1ncc2cc3c(Nc4ccc(Cl)cc4)cccc3nc21",
    "Classification": "zone 1"
  },
  {
    "Compound": "O=C(O)c1[nH]c(=O)c2ccccc2c1Nc1ccccc1",
    "Classification": "zone 1"
  },
  {
    "Compound": "Nc1ccc(CCl)cc1Cc1c(O)ccc2ccccc12",
    "Classification": "zone 2"
  },
  {
    "Compound": "O=[N+]([O-])c1c(/C=N/Nc2ccccc2)oc(-c2ccc3c(c2)OCO3)c1-c1ccc2c(c1)OCO2",
    "Classification": "zone 3"
  },
  {
    "Compound": "O=C1c2cccc3cc([N+](=O)[O-])cc(c23)C(=O)N1CCN1CCCC1",
    "Classification": "zone 1"
  },
  {
    "Compound": "CC1(C)C(C=O)=CCC1CC(N)=O (stereo unspecified)",
    "Classification": "zone 2"
  },
  {
    "Compound": "CCCCCCCCCCCc1nc(N)n[nH]1",
    "Classification": "zone 3"
  },
  {
    "Compound": "CCc1[nH]nc(C(N)=O)c1N=NN(C)C",
    "Classification": "zone 2"
  },
  {
    "Compound": "C(=N/NC1=NCCN1)/c1c2ccccc2c(/C=N\\NC2=NCCN2)c2ccccc12",
    "Classification": "zone 3"
  },
  {
    "Compound": "CCc1nc(N)nc(N)c1-c1ccc(NCCCCCCN)c([N+](=O)[O-])c1",
    "Classification": "zone 1"
  },
  {
    "Compound": "CCCCCCCCCCCCCCCCNC(=O)/C(=C\\c1ccc(Cl)c(Cl)c1)NC(=O)c1ccccc1",
    "Classification": "zone 1"
  },
  {
    "Compound": "CCN(CC)CCNC(=O)c1nn(-c2ccc(Cl)cc2)c2c1CCc1cc(OC)ccc1-2",
    "Classification": "zone 1"
  },
  {
    "Compound": "CC(=O)[C@]1(O)Cc2c(O)c3c(c(O)c2[C@@H](OC2CC(N)C(O)C(C)O2)C1)C(=O)c1c(OCc2ccccc2)cccc1C3=O (stereo partly specified)",
    "Classification": "zone 1"
  },
  {
    "Compound": "Clc1cc(Cc2ccc(N=C/C=C/c3ccccc3)c(Cl)c2)ccc1N=C/C=C\\c1ccccc1",
    "Classification": "zone 1"
  },
  {
    "Compound": "Cc1cccc2c1N=C(C(F)(F)F)CC2=O",
    "Classification": "zone 2"
  },
  {
    "Compound": "C=C1N(C)c2ccc(Cl)cc2C1(C)C",
    "Classification": "zone 1"
  },
  {
    "Compound": "COc1cc(NCc2ccc3nc(N)nc(N)c3c2C)cc(OC)c1OC",
    "Classification": "zone 2"
  },
  {
    "Compound": "Oc1ccc(C=Nc2ccccc2O)cc1",
    "Classification": "zone 2"
  },
  {
    "Compound": "O=Nn1c2ccccc2c2cc([N+](=O)[O-])ccc21",
    "Classification": "zone 3"
  },
  {
    "Compound": "CCN(CC)CC(O)c1cc(-c2ccc(Cl)cc2)nc2c(-c3ccccc3)cccc12 (stereo unspecified)",
    "Classification": "zone 3"
  },
  {
    "Compound": "[N-]=[N+]=NC(c1ccccc1)(c1ccccc1)c1ccccc1",
    "Classification": "zone 3"
  },
  {
    "Compound": "CC[C@@]1(OC(=O)CCC(=O)O)C(=O)OCc2c1cc1n(c2=O)Cc2cc3ccccc3nc2-1",
    "Classification": "zone 3"
  },
  {
    "Compound": "C/C(=N\\NC(=S)NC1CCCC1)c1ccccn1",
    "Classification": "zone 3"
  },
  {
    "Compound": "CC(C)c1[nH]nc(C(N)=O)c1N=NN(C)C",
    "Classification": "zone 2"
  },
  {
    "Compound": "c1ccc2c(c1)ccc1c3ccncc3ccc21",
    "Classification": "zone 3"
  },
  {
    "Compound": "Cc1cccc(/C=N/NC(=S)N(C)CCc2ccccn2)n1",
    "Classification": "zone 3"
  },
  {
    "Compound": "O=Nc1ccc(Nc2ccccc2)cc1",
    "Classification": "zone 2"
  },
  {
    "Compound": "Nc1cc(S(N)(=O)=O)ccc1SSc1ccc(S(N)(=O)=O)cc1N",
    "Classification": "zone 2"
  }
]
